Tested on: Escherichia coli
measurementProtocol: Antibacterial activity against ceftazidime-nonsusceptible Escherichia coli by CLSI M7-A7 broth microdilution method
Type: functional
Each record here notes measured MIC50.

# example entries with known answers
Query: Please report the recorded MIC50 for CO/N=C(\C(=O)N[C@@H]1C(=O)N2C(C(=O)O)=C(CSc3nc(=O)c(O)nn3C)CS[C@H]12)c1csc(N)n1 .
Reply: > 16 µg/mL

Query: And then CCN1CCN(C(=O)N[C@@H](C(=O)N[C@@H]2C(=O)N3[C@@H]2SC(C)(C)[C@@H]3C(=O)O)c2ccccc2)C(=O)C1=O , what is it?
Reply: 16 µg/mL

Next:
Query: Recorded MIC50 of CCO/N=C(\C(=O)N[C@@H]1C(=O)N2C(C(=O)[O-])=C(Sc3nc(-c4cc[n+](C)cc4)cs3)CS[C@H]12)c1nsc(NP(=O)(O)O)n1 , please.
Reply: > 16 µg/mL

Source: ChEMBL document CHEMBL1671626
